Molecular target: human S1P1 receptor (Homo sapiens)
Construct: membranes used
Sequence (P21453 whole entry): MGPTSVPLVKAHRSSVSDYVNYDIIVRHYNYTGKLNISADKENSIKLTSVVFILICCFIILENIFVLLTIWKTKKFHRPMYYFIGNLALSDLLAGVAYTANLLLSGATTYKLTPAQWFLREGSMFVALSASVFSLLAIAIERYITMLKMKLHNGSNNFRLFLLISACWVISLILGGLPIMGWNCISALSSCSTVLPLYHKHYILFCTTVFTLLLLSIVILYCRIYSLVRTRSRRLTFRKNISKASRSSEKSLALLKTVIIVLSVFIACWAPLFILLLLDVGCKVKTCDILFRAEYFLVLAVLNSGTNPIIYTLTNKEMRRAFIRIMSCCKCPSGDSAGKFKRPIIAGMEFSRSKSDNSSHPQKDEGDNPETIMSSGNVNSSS
Experiment: GTP γ35S binding assay for S1P1 activity
Details: membranes of cells stably expressing the S1P1 receptor, test concentrations 0.08 to 5,000 nM
pEC50: −log10 of the molar value.

Smiles structure: COc1ccc2cc(C(=O)Nc3ccc(CNCCCP(=O)(O)O)cc3)cc(N(C)C)c2c1
pEC50: 6.31

Smiles structure: CCN(CC)c1cc(C(=O)Nc2ccc(CNCCCP(=O)(O)O)cc2)cc2ccc(OC)cc12
pEC50: 7.02

Smiles structure: CCCN(C)c1cc(C(=O)Nc2ccc(CNCCCP(=O)(O)O)cc2)cc2ccc(OC)cc12
pEC50: 6.80

Smiles structure: CCN(CC1CC1)c1cc(C(=O)Nc2ccc(CNCCCP(=O)(O)O)cc2)cc2ccc(OC)cc12
pEC50: 6.40

Smiles structure: COc1ccc2cc(C(=O)Nc3ccc(CNCCCP(=O)(O)O)cc3)cc(N(C)CC3CC3)c2c1
pEC50: 6.86
